Data origin: ChEMBL document CHEMBL4834442

System: CD4+ve Th
Assay: Immunosuppressive activity in C57BL/6 mouse SMNCs-derived CD4+ T cells assessed as inhibition of concanavalinA-stimulated cell proliferation at 1 uM measured after 5 to 7 days by CFSE staining based FACScan flowcytometry
Type: functional
Conditions: time 5-7 day
Calls of active or inactive are those of the source. No cut-off for these calls is given here.
// one of t (active), f (inactive), no free text

Consider the worked cases shown below.
>  <STRUCTURE SMILES>
Cc1ccc(O)cc1CC[C@@H]1[C@H](O)CC[C@]2(C)[C@@H]([C@H](C)CCCC(C)C)[C@@H](O)C[C@@H]12

>  <CLASS>
t

$$$$
>  <STRUCTURE SMILES>
C=C(CC[C@@H](C)[C@H]1CC[C@@H]2[C@]1(C)CC[C@@H](O)[C@@]2(O)CCc1cc(O)ccc1C)C(C)C

>  <CLASS>
t

$$$$
>  <STRUCTURE SMILES>
Cc1ccc(O)cc1CC[C@]1(O)C(=O)CC[C@]2(C)[C@@H]([C@H](C)/C=C/[C@@H](C)C(C)C)CC[C@H]21

>  <CLASS>
t

$$$$
>  <STRUCTURE SMILES>
C/C=C(/CC[C@@H](C)[C@H]1CC[C@@H]2[C@]1(C)CC[C@@H](O)[C@@]2(O)CCc1cc(O)ccc1C)C(C)C

>  <CLASS>
f

$$$$

Query string: In this assay, the call recorded for Cc1ccc(O)cc1CC[C@]1(O)C(=O)CC[C@]2(C)[C@@H]([C@H](C)/C=C/[C@@H](C)C(C)C)C[C@@H](O)[C@H]21 was what?
Result string: f

Query string: Give the logged outcome of this assay for the following compound: Cc1ccc(O)cc1CC[C@@H]1[C@H](O)CC[C@]2(C)[C@@H]([C@H](C)/C=C/[C@@H](C)C(C)C)CC[C@@H]12
Result string: t
